target: Melanocortin receptor 4 (Homo sapiens, UniProt P32245)
Sequence (P32245 whole entry): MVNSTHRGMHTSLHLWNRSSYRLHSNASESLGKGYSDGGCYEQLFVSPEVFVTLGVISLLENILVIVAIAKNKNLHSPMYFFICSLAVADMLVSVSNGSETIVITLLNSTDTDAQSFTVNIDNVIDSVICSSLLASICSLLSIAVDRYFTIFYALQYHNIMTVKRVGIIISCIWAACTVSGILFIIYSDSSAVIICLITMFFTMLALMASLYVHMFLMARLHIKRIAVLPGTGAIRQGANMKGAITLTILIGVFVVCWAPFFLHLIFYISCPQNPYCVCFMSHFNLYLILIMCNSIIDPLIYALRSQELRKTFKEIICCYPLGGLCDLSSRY
RECORDED_METRIC: Ki (nM)

Inquiry: Quick check: Ki of N=C(N)NCCC[C@H]1C[C@H](OCc2ccc3ccccc3c2)CN1C(=O)[C@@H](Cc1ccccc1)NC(=O)[C@@H]1CCCCN1 ?
Reply text: 121

(P) NC(N)=NCCC[C@H]1C[C@@H](OCc2ccc3ccccc3c2)CN1C(=O)[C@@H](Cc1ccccc1)NC(=O)CCc1ccccc1
(Q) CC(=O)N[C@@H](Cc1ccc(O)cc1)C(=O)N[C@H](Cc1ccccc1)C(=O)N1C[C@H](OCc2ccc3ccccc3c2)C[C@@H]1CCCN=C(N)N
(R) NC(N)=NCCC[C@H]1C[C@@H](OCc2ccc3ccccc3c2)CN1C(=O)[C@H](N)Cc1ccccc1
Inquiry: Please put the entries in order of rising Ki. I'd appreciate it if you listed the labels in the requested order.
Reply text: Q, P, R

----------
target: Melanocyte-stimulating hormone receptor (Homo sapiens); experiment: Agonist activity at human MC1R transfected in HEK293 cells
Sequence (Q01726 whole entry): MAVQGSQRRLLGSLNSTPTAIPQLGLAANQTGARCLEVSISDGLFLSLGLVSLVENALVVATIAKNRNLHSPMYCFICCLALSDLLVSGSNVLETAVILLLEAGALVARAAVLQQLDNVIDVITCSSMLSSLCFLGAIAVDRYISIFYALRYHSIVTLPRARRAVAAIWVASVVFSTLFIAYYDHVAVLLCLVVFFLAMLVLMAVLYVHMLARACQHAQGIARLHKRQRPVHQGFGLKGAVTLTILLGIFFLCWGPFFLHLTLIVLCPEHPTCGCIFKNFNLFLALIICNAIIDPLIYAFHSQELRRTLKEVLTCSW
RECORDED_METRIC: EC50 (nM)

Examples with their reported EC50 follow.
Inquiry: Quick check: EC50 of CC(=O)N[C@@H](Cc1ccc(O)cc1)C(=O)N[C@H](Cc1ccccc1)C(=O)N1C[C@@H](OCc2ccc3ccccc3c2)C[C@H]1CCCN=C(N)N ?
Reply text: 1810

Inquiry: Note, next up: N=C(N)NCCNC(=O)[C@H]1C[C@@H](OCc2ccc3ccccc3c2)CN1C(=O)[C@@H](Cc1ccccc1)NC(=O)[C@@H]1CCCCN1
Reply text: 390

(A) CC(=O)N[C@@H](Cc1cnc[nH]1)C(=O)N[C@H](Cc1ccccc1)C(=O)N1C[C@H](OCc2ccc3ccccc3c2)C[C@@H]1C(=O)NCCN=C(N)N
(B) CC(=O)N[C@@H](Cc1ccc(O)cc1)C(=O)N[C@H](Cc1ccccc1)C(=O)N1C[C@H](OCc2ccc3ccccc3c2)C[C@@H]1C(=O)NCCN=C(N)N
(C) NC(N)=NCCNC(=O)[C@H]1C[C@@H](OCc2ccc3ccccc3c2)CN1C(=O)[C@@H](Cc1ccccc1)NC(=O)[C@@H](N)Cc1c[nH]cn1
(D) N=C(N)NCCC[C@H]1C[C@@H](OCc2ccc3ccccc3c2)CN1C(=O)[C@@H](Cc1ccccc1)NC(=O)[C@@H]1Cc2ccccc2CN1
(E) NC(N)=NCCC[C@H]1C[C@@H](OCc2ccc3ccccc3c2)CN1C(=O)[C@@H](Cc1ccccc1)NC(=O)CCc1ccccc1
Inquiry: Please put the entries in order of rising EC50. I'd appreciate it if you listed the labels in the requested order.
Reply text: A, C, D, E, B

(a) N=C(N)NCCC[C@@H]1C[C@H](OCc2ccc3ccccc3c2)CN1C(=O)[C@@H](Cc1ccccc1)NC(=O)[C@@H]1CCCCN1
(b) CC(=O)N[C@@H](Cc1cnc[nH]1)C(=O)N[C@H](Cc1ccccc1)C(=O)N1C[C@H](OCc2ccc3ccccc3c2)C[C@@H]1CCCN=C(N)N
(c) CC(=O)N[C@@H](Cc1c[nH]cn1)C(=O)N[C@H](Cc1ccccc1)C(=O)N1C[C@@H](OCc2ccc3ccccc3c2)C[C@@H]1CCCN=C(N)N
Inquiry: Please put the entries in order of rising EC50. I'd appreciate it if you listed the labels in the requested order.
Reply text: c, b, a
(c: 0.045 nM, b: 0.3 nM, a: 1070 nM)

Origin of values: ChEMBL document CHEMBL1138948
